Examples of molecules with documented flash point follow.
Measurement Kind: flash point (°C)

Molecule	Readout Value
C=CC/C=C/C [(4E)-hexa-1,4-diene]	-21.00
CC(=O)OC1CC2CCC1(C)C2(C)C (stereo unspecified) [(1,7,7-trimethyl-2-bicyclo[2.2.1]heptanyl) acetate]	88.00
CCOC(=O)NCCOc1ccc(Oc2ccccc2)cc1 [ethyl N-[2-(4-phenoxyphenoxy)ethyl]carbamate]	224.00
OCCOCc1ccccc1 [2-phenylmethoxyethanol]	129.00
CC(O)CO (stereo unspecified) [propane-1,2-diol]	99.00
NNC(=O)c1ccncc1 [pyridine-4-carbohydrazide]	190.00
Cl.O=C(O)CCP(CCC(=O)O)CCC(=O)O	202.00
COc1ccc2c3c1OC1C(O)C=CC4C(C2)N(C)CCC341 (stereo unspecified)	75.00
CC(C)=O [propan-2-one]	-18.00
CN1CCOCC1 [4-methylmorpholine]	24.00
FC(F)(F)c1cccc(Cl)c1 [1-chloro-3-(trifluoromethyl)benzene]	47.00
